Recorded values, source the MegaScale stability set (Tsuboyama et al. 2023).

B1: EEHEE_rd3_1049 (parent)
chain: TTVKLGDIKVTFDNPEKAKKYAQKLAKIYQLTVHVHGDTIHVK

- Variants of: B1
- measurement notes: folding stability dG (cDNA display proteolysis); higher = more stable
- reported conditions: PBS, room temperature
For each entry below, report its folding stability dG value.
Numbers only, in kJ/mol.

mutation notation | endpoint name | endpoint unit | val
K4F | folding stability dG | kJ/mol | 10
H36R | folding stability dG | kJ/mol | 8.18
H34F | folding stability dG | kJ/mol | 10

Parameter requested: folding stability dG. Apply to each item below.
1. V35S
2. V3P
3. A22L
4. A26I

1: 4.88; 2: 3.12; 3: 6.13; 4: 4.55
